Tested on: CCRIS mutagenicity, Ames/micronucleus/aberration tests
ASSAY SUMMARY: CCRIS mutagenicity studies
TEST PARAMETERS: Test System: AMES SALMONELLA TYPHIMURIUM; Strain/Indicator: TA100; Metabolic Activation: HAMSTER, LIVER, S-9, AROCLOR 1254 (30%); Method: PREINCUBATION
The source made the active and inactive calls. The rule behind the calls is not given here.
A correct response names exactly one class from YES for active, NO for inactive

Reference set (5 entries):
| MOLECULE | ASSIGNED CLASS |
| --- | --- |
| C=CCOC(=O)C=C | NO |
| c1cc2c3c(cccc3c1)CC2 | NO |
| O=C(O)CC[N+](=O)[O-] | YES |
| S=C=Nc1cccc2ccccc12 | YES |
| CCCC(=O)Cl | NO |

Input: Returns: the outcome recorded for Clc1nc(Cl)nc(Nc2ccccc2Cl)n1 in this assay.
Output: NO

Input: Returns: the outcome recorded for ClC(Cl)c1ccccc1 in this assay.
Output: YES

Input: Returns: the outcome recorded for CC(O)C#N (stereo not given) in this assay.
Output: NO

Input: Returns: the outcome recorded for O=C(O)C1=NN(c2ccc(S(=O)(=O)O)cc2)C(=O)C1N=Nc1ccc(S(=O)(=O)O)cc1.[Al] (stereo not given) in this assay.
Output: NO

Input: Returns: the outcome recorded for ClC(Cl)(Cl)Cl in this assay.
Output: NO

Input: Returns: the outcome recorded for CCOc1ccc(N)cc1 in this assay.
Output: YES

Input: Returns: the outcome recorded for O=Cc1c(Cl)cccc1Cl in this assay.
Output: NO

Input: Returns: the outcome recorded for O=c1n(CC2CO2)c(=O)n(CC2CO2)c(=O)n1CC1CO1 (stereo not given) in this assay.
Output: YES

Input: Returns: the outcome recorded for C=CC(C)=O in this assay.
Output: YES

Input: Returns: the outcome recorded for CCCCCCCCCCCCC/C([O-])=N/[N+](C)(C)CC(C)O (stereo not given) in this assay.
Output: NO
